# method: ATG_BRE_CIS: Attagene CIS-FACTORIAL HepG2 Assay for human Bone Morphogenetic Protein (BMP) Response Element (BRE) (AID 2282933)
# experimental_parameters: HepG2 BMP response element reporter, Attagene transcription factor profiling; actives raise or lower the signal
Active and inactive are the calls of the source. Rule for the calls: active = hit-call score of the fitted dose curve at least 0.9, where 1 is the maximum; inactive = score below 0.9.
Respond only with the outcome that fits, drawn from active, inactive

>  <compound>
CC(=O)OC(C)C

>  <label_class>
inactive

$$$$
>  <compound>
CC1=CC[C@H]2C[C@@H]1C2(C)C

>  <label_class>
inactive

$$$$
>  <compound>
Cn1c([N+](=O)[O-])cnc1COC(N)=O

>  <label_class>
inactive

$$$$
>  <compound>
COc1ccc(C(Cl)=C(c2ccc(OC)cc2)c2ccc(OC)cc2)cc1

>  <label_class>
inactive

$$$$
>  <compound>
CC(=O)OCCC1CCCCC1

>  <label_class>
inactive

$$$$

Problem: What was the test verdict on "CCN(Cc1cccc(S(=O)(=O)O)c1)c1ccc(C(=C2C=CC(=[N+](CC)Cc3cccc(S(=O)(=O)[O-])c3)C=C2)c2ccccc2)cc1" ?
Result: inactive

Problem: Request: "Nc1nc2ccccc2[nH]1"
Result: inactive

Problem: Request: "O=C(O)CCCC[C@@H]1SC[C@@H]2NC(=O)N[C@@H]21"
Result: inactive

Problem: Request: "COc1cc(C)ccc1C(C)C"
Result: inactive

Problem: Request: "OC1CCCC1"
Result: inactive

Problem: Request: CC(CC=O)c1ccccc1 (centres undefined)
Result: inactive

Problem: Request: "COc1ccc([C@@H]2CC(=O)c3c(O)cc(O[C@@H]4O[C@H](CO[C@@H]5O[C@@H](C)[C@H](O)[C@@H](O)[C@H]5O)[C@@H](O)[C@H](O)[C@H]4O)cc3O2)cc1OC"
Result: inactive

Problem: Request: "OCCNCc1ccccc1"
Result: inactive

Problem: Request: "CCCCCCCCC(=O)OCC"
Result: inactive

====

# method: CCTE_Shafer_MEA_acute_synchrony_index: CCTE's Neural Acute Assay for Synchrony, Shafer Lab (AID 2284027);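 note: network synchrony index of spontaneous spiking in primary rat cortical neurons on MEAs; fitted for loss of signal so actives lower synchrony relative to DMSO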
Active and inactive are the calls of the source. The calls were made as follows: active = hit-call score of the fitted dose curve at least 0.9, where 1 is the maximum; inactive = score below 0.9.
Respond only with the outcome that fits, drawn from active, inactive

Problem: What was the test verdict on "CCOC(=O)c1ccccc1C(=C1C=C(Br)C(=O)C(Br)=C1)c1cc(Br)c(O)c(Br)c1" ?
Result: inactive

Problem: Request: CCCCC(CC)COCC1CO1 (stereo not drawn)
Result: inactive

Problem: Request: "O=C(c1ccc(O)cc1)c1ccc(O)cc1O"
Result: inactive

Problem: Request: "CO[Si](OC)(OC)c1ccccc1"
Result: inactive

Problem: Request: "Nc1ncn([C@@H]2O[C@H](CO)[C@@H](O)[C@H]2O)c(=O)n1"
Result: active

====

# method: BSK_3C_Proliferation: Cell Proliferation Assessment in the BioMAP Diversity Plus: 3C Assay (AID 2283006);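 for AC50: potency may reflect either rise or fall in cell number versus DMSO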
# experimental_parameters: primary human endothelial cells (HUVEC)
Active and inactive are the calls of the source. How the source made its calls: active means hit-call score of the fitted dose curve at least 0.9, where 1 is the maximum; inactive means score below 0.9.
measurement_kind: AC50

Answered examples (10):
>  <compound>
C/C=C\C/C=C/CCCCCCCCOC(C)=O

>  <AC50>
22.3 µM (active)

$$$$
>  <compound>
c1ccc(-c2ccccn2)nc1

>  <AC50>
29 µM (active)

$$$$
>  <compound>
CN1C(=O)N(C)C(O)C1O (stereo not given)

>  <AC50>
inactive

$$$$
>  <compound>
O=c1c2ccccc2oc2ccccc12

>  <AC50>
inactive

$$$$
>  <compound>
CO[Si](OC)(OC)c1ccccc1

>  <AC50>
inactive

$$$$
>  <compound>
C=CCOc1c(Br)cc(Br)cc1Br

>  <AC50>
25.8 µM (active)

$$$$
>  <compound>
COCc1c(C(C)C)nc(C(C)C)c(/C=C/[C@@H](O)C[C@@H](O)CC(=O)O)c1-c1ccc(F)cc1

>  <AC50>
0.039 µM (active)

$$$$
>  <compound>
N#[N+]c1ccc2c(S(=O)(=O)[O-])cccc2c1O

>  <AC50>
inactive

$$$$
>  <compound>
C=CCOCC(O)CCl (stereo not given)

>  <AC50>
inactive

$$$$
>  <compound>
O=C(Cl)c1cc(C(=O)Cl)cc(C(=O)Cl)c1

>  <AC50>
6.87 µM (active)

$$$$

Problem: Value lookup for AC50; key = CCCCC(CC)COCC1CO1 (stereo not given)
Result: inactive

Problem: Request: "COc1ccc2nc(N)sc2c1"
Result: inactive

Problem: Request: "CCCCCCCCc1ccc(Nc2ccc(CCCCCCCC)cc2)cc1"
Result: inactive

Problem: Request: "CC(C)(c1cc(Br)c(OCCO)c(Br)c1)c1cc(Br)c(OCCO)c(Br)c1"
Result: 11.9 µM (active)
